Source: PubChem BioAssay (EPA / NIEHS)

# Read-out: Cyclin D2 (CCND2), CCND2 (gene 894)
# measurement.description: LTEA_HepaRG_CCND2: Life Technologies and Expression Analysis (LTEA) Assay for Cyclin D2 (CCND2) using HepaRG (AID 2283449);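 note: CCND2 transcript measured by TaqMan qRT-PCR and normalised to three housekeeping genes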
# cond: mRNA level, 48 h; actives raise or lower the signal
Active and inactive are the calls of the source. Rule for the calls: active = hit-call score of the fitted dose curve at least 0.9, where 1 is the maximum; inactive = score below 0.9.
Field 'call' accepts Y for active, N for inactive

CC(C)c1cccc(C(C)C)c1NC(=O)NS(=O)(=O)c1cc(C(C)(C)O)co1	N
O=C(O)c1[nH]n(-c2ccc(S(=O)(=O)O)cc2)c(=O)c1N=Nc1ccc(S(=O)(=O)O)cc1	N
NC(=Nc1ccccc1)Nc1ccccc1	N
CN(C)C(=O)NC1(c2ccccc2)CCN(CC[C@@]2(c3ccc(F)c(F)c3)CN(C(=O)c3ccccc3)CCO2)CC1	N
Cc1ccc(-c2cc(C(F)(F)F)nn2-c2ccc(S(N)(=O)=O)cc2)cc1	N
O=Cc1ccccc1C=O	N
CCCCC(CC)CO (stereo unspecified)	Y
CC1=C(C)S(=O)(=O)CCS1(=O)=O	N
C#CC(O)C(CC)CCCC (stereo unspecified)	N
CC(COCC(C)OC(=O)c1ccccc1)OC(=O)c1ccccc1 (stereo unspecified)	N

Now take the following compound into account.
For Cc1cn([C@H]2C=C[C@@H](CO)O2)c(=O)[nH]c1=O , what call appears in the results of this test?
N

----------
# Read-out: Interferon-gamma inducible Protein 10 (IP10), CXCL10 (gene 3627)
# measurement.description: BSK_KF3CT_IP10: BioMAP Diversity Plus: KF3CT Assay for Interferon-gamma inducible Protein 10 (IP10) Biomarker Activity (AID 2283068)
# cond: primary human keratinocytes with fibroblasts; actives raise or lower the signal
# Procedure: BSK_KF3CT is a cell-based, multiplexed-readout assay that uses keratinocytes and foreskin fibroblasts, a human skin primary cell co-culture, with measurements taken at 24 hours after chemical dosing in a 96-well plate.BSK_KF3CT_IP10 is an assay component measured in the BSK_KF3CT assay. It measures IP-10 antibody related to regulation of gene expression using ELISA technology.Data from the assay component BSK_KF3CT_IP10 was analyzed into 1 assay endpoint. […]
Activity calls are given as the source filed them. The calls were made as follows: active = hit-call score of the fitted dose curve at least 0.9, where 1 is the maximum; inactive = score below 0.9.
Field 'call' accepts active, inactive

For COC(=O)[C@H]1[C@H]2C[C@@H]3c4[nH]c5cc(OC)ccc5c4CCN3C[C@H]2C[C@@H](OC(=O)c2cc(OC)c(OC)c(OC)c2)[C@@H]1OC , what call appears in the results of this test?
inactive

For CCCCc1nc2cccnc2n1Cc1ccc(-c2ccccc2-c2nnn[nH]2)cc1 , what call appears in the results of this test?
active

For CSc1ccc(Oc2ccc(S(N)(=O)=O)cc2CN(C)C)cc1C , what call appears in the results of this test?
inactive

For Oc1ccccc1O , what call appears in the results of this test?
inactive

----------
# measurement.description: BSK_4H_Eotaxin3: BioMAP Diversity Plus: 4H Assay for Eotaxin 3 Biomarker Activity (AID 2283000)
# cond: primary human endothelial cells (HUVEC); actives raise or lower the signal
Active and inactive are the calls of the source. Rule for the calls: active = hit-call score of the fitted dose curve at least 0.9, where 1 is the maximum; inactive = score below 0.9.
Field 'call' accepts active, inactive

Consider the following illustrative entries.
S=c1[nH]c2ccccc2s1	inactive
CC(=O)O[C@]1(C(C)=O)CC[C@H]2[C@@H]3C=C(Cl)C4=CC(=O)[C@@H]5C[C@@H]5[C@]4(C)[C@H]3CC[C@@]21C	inactive
CCC(C)N(C)C(=O)c1cc2ccccc2c(-c2ccccc2Cl)n1 (configuration not stated)	inactive
O=C(NS(=O)(=O)/C=C/c1cccs1)c1ccc(F)cc1Br	inactive
CC(=O)S[C@H](C(=O)N[C@H]1Cc2ccccc2[C@H]2CCC[C@@H](C(=O)O)N2C1=O)C(C)C	inactive

For O=Cc1ccccc1C=O , what call appears in the results of this test?
inactive

For NC(=Nc1ccccc1)Nc1ccccc1 , what call appears in the results of this test?
active

For Nc1nc(=S)c2[nH]cnc2[nH]1 , what call appears in the results of this test?
inactive

For COC(=O)CCCC(=O)OC , what call appears in the results of this test?
inactive

For CC(COCC(C)OC(=O)c1ccccc1)OC(=O)c1ccccc1 (configuration not stated) , what call appears in the results of this test?
inactive
